settings: in methanol, 318.15 K

# smiles-structure, solubility (mole fraction)
records = [
    ("CCOc1ccc2ccccc2c1C(=O)N[C@@H]1C(=O)N2[C@@H]1SC(C)(C)[C@@H]2C(=O)[O-].[Na+]", 0.00251),
]

====

details: in ethanol, 308.15 K
recorded-metric: solubility (mole fraction)

# smiles-structure, recorded-number
rows = [
    ("CCOc1ccc2ccccc2c1C(=O)N[C@@H]1C(=O)N2[C@@H]1SC(C)(C)[C@@H]2C(=O)[O-].[Na+]", 0.000509),
]

====

conditions: in acetonitrile, 303.15 K

# smiles-structure, solubility (mole fraction)
rows = [
    ("CCOc1ccc2ccccc2c1C(=O)N[C@@H]1C(=O)N2[C@@H]1SC(C)(C)[C@@H]2C(=O)[O-].[Na+]", "9.3e-05"),
]

====

conditions: in methanol, 308.15 K
recorded-metric: solubility (mole fraction)

# smiles-structure, recorded-number
records = [
    ("CCOc1ccc2ccccc2c1C(=O)N[C@@H]1C(=O)N2[C@@H]1SC(C)(C)[C@@H]2C(=O)[O-].[Na+]", 0.002),
]

====

details: in acetonitrile, 308.15 K
recorded-metric: solubility (mole fraction)

# smiles-structure, recorded-metric, recorded-number
measured = [
    ("CCOc1ccc2ccccc2c1C(=O)N[C@@H]1C(=O)N2[C@@H]1SC(C)(C)[C@@H]2C(=O)[O-].[Na+]", "solubility (mole fraction)", 0.000111),
]

====

settings: in methanol, 298.15 K

# smiles-structure, solubility (mole fraction)
records = [
    ("CCOc1ccc2ccccc2c1C(=O)N[C@@H]1C(=O)N2[C@@H]1SC(C)(C)[C@@H]2C(=O)[O-].[Na+]", 0.00149),
]

====

conditions: in ethanol, 298.15 K

# smiles-structure, solubility (mole fraction)
measured = [
    ("CCOc1ccc2ccccc2c1C(=O)N[C@@H]1C(=O)N2[C@@H]1SC(C)(C)[C@@H]2C(=O)[O-].[Na+]", 0.000372),
]

====

conditions: in isopropanol, 288.15 K

# smiles-structure, solubility (mole fraction)
data = [
    ("CCOc1ccc2ccccc2c1C(=O)N[C@@H]1C(=O)N2[C@@H]1SC(C)(C)[C@@H]2C(=O)[O-].[Na+]", 0.000201),
]

====

conditions: in acetone, 293.15 K
recorded-metric: solubility (mole fraction)

# smiles-structure, recorded-metric, recorded-number
rows = [
    ("CCOc1ccc2ccccc2c1C(=O)N[C@@H]1C(=O)N2[C@@H]1SC(C)(C)[C@@H]2C(=O)[O-].[Na+]", "solubility (mole fraction)", 0.000158),
]

====

conditions: in acetone, 288.15 K
recorded-metric: solubility (mole fraction)

# smiles-structure, recorded-metric, recorded-number
measured = [
    ("CCOc1ccc2ccccc2c1C(=O)N[C@@H]1C(=O)N2[C@@H]1SC(C)(C)[C@@H]2C(=O)[O-].[Na+]", "solubility (mole fraction)", 0.000106),
]

====

conditions: in acetone, 303.15 K
recorded-metric: solubility (mole fraction)

# smiles-structure, recorded-metric, recorded-number
records = [
    ("CCOc1ccc2ccccc2c1C(=O)N[C@@H]1C(=O)N2[C@@H]1SC(C)(C)[C@@H]2C(=O)[O-].[Na+]", "solubility (mole fraction)", 0.000255),
]

====

conditions: in n-butyl acetate, 308.15 K
recorded-metric: solubility (mole fraction)

# smiles-structure, recorded-metric, recorded-number
data = [
    ("CCOc1ccc2ccccc2c1C(=O)N[C@@H]1C(=O)N2[C@@H]1SC(C)(C)[C@@H]2C(=O)[O-].[Na+]", "solubility (mole fraction)", "9.63e-05"),
]

====

conditions: in acetone, 298.15 K

# smiles-structure, solubility (mole fraction)
measured = [
    ("CCOc1ccc2ccccc2c1C(=O)N[C@@H]1C(=O)N2[C@@H]1SC(C)(C)[C@@H]2C(=O)[O-].[Na+]", 0.000202),
]

====

settings: in methanol, 303.15 K
recorded-metric: solubility (mole fraction)

# smiles-structure, result
measured = [
    ("CCOc1ccc2ccccc2c1C(=O)N[C@@H]1C(=O)N2[C@@H]1SC(C)(C)[C@@H]2C(=O)[O-].[Na+]", 0.00173),
]

====

settings: in acetonitrile, 283.15 K
recorded-metric: solubility (mole fraction)

# smiles-structure, recorded-number
records = [
    ("CCOc1ccc2ccccc2c1C(=O)N[C@@H]1C(=O)N2[C@@H]1SC(C)(C)[C@@H]2C(=O)[O-].[Na+]", "2.97e-05"),
]

====

details: in ethanol, 318.15 K

# smiles-structure, solubility (mole fraction)
measured = [
    ("CCOc1ccc2ccccc2c1C(=O)N[C@@H]1C(=O)N2[C@@H]1SC(C)(C)[C@@H]2C(=O)[O-].[Na+]", 0.000615),
]

====

conditions: in methanol, 278.15 K
recorded-metric: solubility (mole fraction)

# smiles-structure, recorded-number
data = [
    ("CCOc1ccc2ccccc2c1C(=O)N[C@@H]1C(=O)N2[C@@H]1SC(C)(C)[C@@H]2C(=O)[O-].[Na+]", 0.000605),
]

====

details: in acetone, 313.15 K
recorded-metric: solubility (mole fraction)

# smiles-structure, recorded-number
rows = [
    ("CCOc1ccc2ccccc2c1C(=O)N[C@@H]1C(=O)N2[C@@H]1SC(C)(C)[C@@H]2C(=O)[O-].[Na+]", 0.000353),
]

====

settings: in n-butyl acetate, 278.15 K

# smiles-structure, solubility (mole fraction)
data = [
    ("CCOc1ccc2ccccc2c1C(=O)N[C@@H]1C(=O)N2[C@@H]1SC(C)(C)[C@@H]2C(=O)[O-].[Na+]", "2.14e-05"),
]

====

details: in methanol, 293.15 K

# smiles-structure, solubility (mole fraction)
records = [
    ("CCOc1ccc2ccccc2c1C(=O)N[C@@H]1C(=O)N2[C@@H]1SC(C)(C)[C@@H]2C(=O)[O-].[Na+]", 0.00121),
]

====

details: in isopropanol, 298.15 K
recorded-metric: solubility (mole fraction)

# smiles-structure, recorded-metric, recorded-number
rows = [
    ("CCOc1ccc2ccccc2c1C(=O)N[C@@H]1C(=O)N2[C@@H]1SC(C)(C)[C@@H]2C(=O)[O-].[Na+]", "solubility (mole fraction)", 0.000261),
]

====

details: in acetone, 318.15 K

# smiles-structure, solubility (mole fraction)
measured = [
    ("CCOc1ccc2ccccc2c1C(=O)N[C@@H]1C(=O)N2[C@@H]1SC(C)(C)[C@@H]2C(=O)[O-].[Na+]", 0.000401),
]

====

conditions: in ethanol, 303.15 K
recorded-metric: solubility (mole fraction)

# smiles-structure, recorded-number
rows = [
    ("CCOc1ccc2ccccc2c1C(=O)N[C@@H]1C(=O)N2[C@@H]1SC(C)(C)[C@@H]2C(=O)[O-].[Na+]", 0.000442),
]

====

conditions: in n-butyl acetate, 288.15 K

# smiles-structure, solubility (mole fraction)
measured = [
    ("CCOc1ccc2ccccc2c1C(=O)N[C@@H]1C(=O)N2[C@@H]1SC(C)(C)[C@@H]2C(=O)[O-].[Na+]", "4.3e-05"),
]

====

conditions: in acetone, 283.15 K
recorded-metric: solubility (mole fraction)

# smiles-structure, recorded-metric, recorded-number
measured = [
    ("CCOc1ccc2ccccc2c1C(=O)N[C@@H]1C(=O)N2[C@@H]1SC(C)(C)[C@@H]2C(=O)[O-].[Na+]", "solubility (mole fraction)", "7.1e-05"),
]

====

conditions: in isopropanol, 278.15 K

# smiles-structure, solubility (mole fraction)
measured = [
    ("CCOc1ccc2ccccc2c1C(=O)N[C@@H]1C(=O)N2[C@@H]1SC(C)(C)[C@@H]2C(=O)[O-].[Na+]", 0.000155),
]

====

details: in methanol, 283.15 K
recorded-metric: solubility (mole fraction)

# smiles-structure, recorded-number
data = [
    ("CCOc1ccc2ccccc2c1C(=O)N[C@@H]1C(=O)N2[C@@H]1SC(C)(C)[C@@H]2C(=O)[O-].[Na+]", 0.000803),
]

====

conditions: in ethanol, 283.15 K

# smiles-structure, solubility (mole fraction)
records = [
    ("CCOc1ccc2ccccc2c1C(=O)N[C@@H]1C(=O)N2[C@@H]1SC(C)(C)[C@@H]2C(=O)[O-].[Na+]", 0.000201),
]

====

details: in acetone, 308.15 K

# smiles-structure, solubility (mole fraction)
measured = [
    ("CCOc1ccc2ccccc2c1C(=O)N[C@@H]1C(=O)N2[C@@H]1SC(C)(C)[C@@H]2C(=O)[O-].[Na+]", 0.000309),
]

====

settings: in n-butyl acetate, 293.15 K
recorded-metric: solubility (mole fraction)

# smiles-structure, recorded-number
rows = [
    ("CCOc1ccc2ccccc2c1C(=O)N[C@@H]1C(=O)N2[C@@H]1SC(C)(C)[C@@H]2C(=O)[O-].[Na+]", "5.85e-05"),
]
